Where do these numbers come from? They come from paper PMC6021032.

Sequence of the target: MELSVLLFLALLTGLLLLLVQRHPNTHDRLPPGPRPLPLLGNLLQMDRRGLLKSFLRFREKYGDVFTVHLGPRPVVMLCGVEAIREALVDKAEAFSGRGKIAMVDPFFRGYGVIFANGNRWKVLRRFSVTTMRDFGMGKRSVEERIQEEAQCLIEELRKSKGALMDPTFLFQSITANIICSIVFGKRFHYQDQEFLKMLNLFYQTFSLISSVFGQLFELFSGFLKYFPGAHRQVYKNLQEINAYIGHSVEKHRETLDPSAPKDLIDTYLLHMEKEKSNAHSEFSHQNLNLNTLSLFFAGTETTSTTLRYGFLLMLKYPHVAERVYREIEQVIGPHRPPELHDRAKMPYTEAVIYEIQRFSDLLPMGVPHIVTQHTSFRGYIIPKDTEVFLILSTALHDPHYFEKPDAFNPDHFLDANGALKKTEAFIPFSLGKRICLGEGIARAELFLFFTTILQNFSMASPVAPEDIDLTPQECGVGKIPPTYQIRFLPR
Metric Name: IC50

IC50 reported for this molecule `CCOC(=O)c1cc(C(=O)c2ccc(Cl)cc2)n2ccc(-c3cc[n+](CC(=O)c4ccc(C)cc4)cc3)cc12` : > 5 µM

###

Assay: in vitro
Conditions: human, s9, NADPH-dependent CLint
Metric Name: microsomal CLint at 1 μM

microsomal CLint at 1 μM reported for this compound CCOC(=O)c1cc(C(=O)c2ccc(Cl)cc2)n2ccc(-c3cc[n+](CC(=O)c4ccc(C)cc4)cc3)cc12 [Compound 6i] : 369 µL/min/mg

###

Assay: In vitro microsomal stability assay
Conditions: human, s9, NADPH-free T1/2, Human, 1 μM, 37 °C
From the text: The stability of compound is expressed as a function of time[41]^,[42] 3.4. In vitro Microsomal Stability Assay compound to detect NADPH-free degradation. Verapamil and dextromethorphan were included as control compounds.
Metric Name: half-life at 1 μM

half-life at 1 μM reported for this molecule COc1ccc2c(c1)[C@]13CCCC[C@@H]1[C@H](C2)N(C)CC3 [Dextromethorphan, reference compound] : > 3 h

###

Assay: In vitro microsomal stability assay
Settings: human, s9, NADPH-free CLint, 1 μM, 37 °C
Excerpt: The stability of compound is expressed as a function of time[41]^,[42] 3.4. In vitro Microsomal Stability Assay compound to detect NADPH-free degradation. Verapamil and dextromethorphan were included as control compounds.
Metric Name: microsomal CLint at 1 μM

microsomal CLint at 1 μM reported for this compound COc1ccc2c(c1)[C@]13CCCC[C@@H]1[C@H](C2)N(C)CC3 [Dextromethorphan, reference compound] : < 12.8 µL/min/mg

###

Test system: Mycobacterium abscessus
Assay: MIC, IC50, IC90 against nontuberculous mycobacteria (OD590)
Format: cell-based
Conditions: Mycobacteroides abscessus; M. abscessus
Metric Name: IC50

Query `CCOC(=O)c1cc(C(=O)c2ccc(Cl)cc2)n2ccc(-c3cc[n+](CC(=O)c4ccc(C)cc4)cc3)cc12` on Mycobacterium abscessus; IC50 returned: 14 µM

Query CO[C@H]1/C=C/O[C@@]2(C)Oc3c(C)c(O)c4c(O)c(c(/C=N/N5CCN(C)CC5)c(O)c4c3C2=O)NC(=O)/C(C)=C\C=C\[C@H](C)[C@H](O)[C@@H](C)[C@@H](O)[C@@H](C)[C@H](OC(C)=O)[C@@H]1C [Rifampicin, reference compound] on Mycobacterium abscessus; IC50 returned: 2.3 µM

Query `CCOC(=O)c1cc(C(=O)c2ccc(Br)cc2)n2ccc(-c3cc[n+](CC(=O)c4cccc(OC)c4)cc3)cc12` on Mycobacterium abscessus; IC50 returned: > 200 µM

Query `CCOC(=O)c1cc(C(=O)c2ccccc2)n2ccc(-c3cc[n+](CC(=O)c4ccc(C)cc4)cc3)cc12.[Br-]` on Mycobacterium abscessus; IC50 returned: 24 µM

Query `CCOC(=O)c1cc(C(=O)c2ccc(Cl)cc2)n2ccc(-c3cc[n+](CC(=O)c4cccc(OC)c4)cc3)cc12` on Mycobacterium abscessus; IC50 returned: 81 µM

###

Test system: Mycobacterium tuberculosis H37Rv
Experiment: Primary screen (Cycle 1): MIC, IC50, IC90 under aerobic conditions
Assay type: cell-based
Conditions: Mycobacterium tuberculosis; M. tuberculosis H37Rv, aerobic conditions, primary screen
Provide the recorded IC50 for the entries that follow.
Answer format: numeric, µM implied, no suffix.

Query `CCOC(=O)c1cc(C(=O)c2ccc(Br)cc2)n2ccc(-c3cc[n+](CC(=O)c4ccc(C)cc4)cc3)cc12.[Br-]` on Mycobacterium tuberculosis H37Rv; IC50 returned: 13

Query CO[C@H]1/C=C/O[C@@]2(C)Oc3c(C)c(O)c4c(O)c(c(/C=N/N5CCN(C)CC5)c(O)c4c3C2=O)NC(=O)/C(C)=C\C=C\[C@H](C)[C@H](O)[C@@H](C)[C@@H](O)[C@@H](C)[C@H](OC(C)=O)[C@@H]1C [Rifampicin, reference compound] on Mycobacterium tuberculosis H37Rv; IC50 returned: 0.0036

Query `CCOC(=O)c1cc(C(=O)c2ccc(Br)cc2)n2ccc(-c3cc[n+](CC(=O)c4cccc(OC)c4)cc3)cc12` on Mycobacterium tuberculosis H37Rv; IC50 returned: 13

Query `CCOC(=O)c1cc(C(=O)c2ccc(Cl)cc2)n2ccc(-c3cc[n+](CC(=O)c4cccc(OC)c4)cc3)cc12` on Mycobacterium tuberculosis H37Rv; IC50 returned: 14

Query `CCOC(=O)c1cc(C(=O)c2ccccc2)n2ccc(-c3cc[n+](CC(=O)c4ccc(C)cc4)cc3)cc12.[Br-]` on Mycobacterium tuberculosis H37Rv; IC50 returned: 13

Query `CCOC(=O)c1cc(C(=O)c2ccc(Cl)cc2)n2ccc(-c3cc[n+](CC(=O)c4ccc(C)cc4)cc3)cc12` on Mycobacterium tuberculosis H37Rv; IC50 returned: 7.2

###

Provide the recorded pIC50 for the entries that follow.
System: Mycobacterium tuberculosis H37Rv
Test: Primary screen (Cycle 1): MIC, IC50, IC90 under aerobic conditions
Type: cell-based
Settings: Mycobacterium tuberculosis; M. tuberculosis H37Rv, aerobic conditions, primary screen
pIC50: −log10 of the molar value.

Query CCOC(=O)c1cc(C(=O)c2ccc(Cl)cc2)n2ccc(-c3cc[n+](CC(=O)c4ccc(F)cc4)cc3)cc12 [Compound 6e] on Mycobacterium tuberculosis H37Rv; pIC50 returned: < 4.00

Query CCOC(=O)c1cc(C(=O)c2ccc(OC)cc2)n2ccc(-c3cc[n+](CC(=O)c4ccc(Br)cc4)cc3)cc12 [Compound 6l] on Mycobacterium tuberculosis H37Rv; pIC50 returned: < 3.70

Query CCOC(=O)c1cc(C(=O)c2ccc(Br)cc2)n2ccc(-c3cc[n+](CC(=O)c4ccc(Cl)cc4)cc3)cc12 [Compound 6j] on Mycobacterium tuberculosis H37Rv; pIC50 returned: < 3.70
